TARGET_OR_TEST_SYSTEM: ZmDRIK1 (DROUGHT RESPONSIVE INACTIVE KINASE 1), kinase domain (Zea mays, UniProt C0P4K9)
Construct: gene ZEAMMB73_Zm00001d028770; ZmDRIK1-KD R187-S514 (kinase domain)
Sequence (C0P4K9 187-514): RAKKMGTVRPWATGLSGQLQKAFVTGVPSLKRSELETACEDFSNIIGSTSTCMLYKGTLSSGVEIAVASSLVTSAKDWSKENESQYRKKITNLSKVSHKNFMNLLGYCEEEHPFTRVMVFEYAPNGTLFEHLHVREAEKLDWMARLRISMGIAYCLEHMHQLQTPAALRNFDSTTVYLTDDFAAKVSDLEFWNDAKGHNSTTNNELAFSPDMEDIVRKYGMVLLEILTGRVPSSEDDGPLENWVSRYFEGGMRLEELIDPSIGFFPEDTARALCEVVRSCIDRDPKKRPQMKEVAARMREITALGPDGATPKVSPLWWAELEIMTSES
METHOD_SUMMARY: biochemical
MEASUREMENT_CONDITIONS: read-out: dTm B, sheet ZmDRIK1-R187-S514;; DSF, Boltzmann fit, 0.1% DMSO
Where a name gives a salt, the structure may show the parent alone.
OBSERVED_PROPERTY: ΔTm at 10 µM (°C)

Example molecules with recorded ΔTm at 10 µM:
# ΔTm at 10 µM (molecule: CC(C)(O)CC(=O)NCCn1ccc2ncnc(Nc3ccc(Oc4cccc(C(F)(F)F)c4)c(Cl)c3)c21 [TAK-285] ) is -25.6

Field ΔTm at 10 µM (entry Cc1ccc(-n2nc(C(C)(C)C)cc2NC(=O)Nc2ccc(OCCN3CCOCC3)c3ccccc23)cc1 [BIRB 796 (Doramapimod)] ) reads 0.000298

a. CCc1cc(Nc2nccc(-c3c(-c4ccc(OC)c(C(=O)Nc5c(F)cccc5F)c4)nc4ccccn34)n2)c(OC)cc1N1CCC(N2CCN(S(C)(=O)=O)CC2)CC1 [GSK1904529A]
b. Cn1cnc(N)c2ncnc1-2 [3-Methyladenine]
c. COc1ccc(-c2ccc3c(N4CCOC[C@@H]4C)nc(N4CCOC[C@@H]4C)nc3n2)cc1CO [AZD8055]
d. O=C(/C=C/c1ccc(O)c(O)c1)c1ccc(O)cc1O [Butein]
e. CCC[C@H](NC(=O)/C(C#N)=C/c1cccc(Br)n1)c1ccccc1 [Degrasyn (WP1130)]
# ascending order, key=ΔTm at 10 µM Return value: ordered labels per request. e, c, b, a, d

P. Cn1cc(C2=C(c3cn(CCCSC(=N)N)c4ccccc34)C(=O)NC2=O)c2ccccc21 [Ro 31-8220 Mesylate]
Q. COc1ccc(-c2nc(N3CCOCC3)c3sc(CN(C)c4ncc(C(=O)NO)cn4)cc3n2)cn1 [CUDC-907]
R. Oc1ccc(-c2nc(-c3ccc(F)cc3)c(-c3ccncc3)[nH]2)cc1 [SB202190 (FHPI)]
Rank by ΔTm at 10 µM (largest to smallest). Use the labels to give the ranking in the order requested. R, Q, P

A. Cc1nc(Nc2n[nH]c3c2CN(C(=O)N[C@H](CN(C)C)c2ccccc2)C3(C)C)c2sccc2n1 [PF-3758309]
B. CN1CCCN(C(=O)c2cccc(-c3ccc(/C=C4/C(=O)Nc5ccc(Cl)cc54)o3)c2)CC1 [CX-6258 HCl]
C. O=C1NC(=O)C(=Cc2ccc(-c3ccc(F)cc3)o2)S1 (stereo in doubt) [CAY10505]
D. Nc1nccc(Oc2ccc(NC(=O)c3c[nH]cc(-c4ccc(F)cc4)c3=O)cc2F)c1Cl [BMS-794833]
Hey, can you sort those molecules up there by ΔTm at 10 µM, smallest first? List the labels in the requested order. D, B, A, C

###

TARGET_OR_TEST_SYSTEM: ZmDRIK1-K217-P492 (Zea mays, UniProt C0P4K9)
Construct: kinase domain, K217-P492
METHOD_SUMMARY: biochemical
MEASUREMENT_CONDITIONS: read-out: dTm B, sheet ZmDRIK1-K217-P492;; DSF, Boltzmann fit, 0.1% DMSO
OBSERVED_PROPERTY: ΔTm at 10 µM (°C)

Worked cases, answers included:
Please fill in: ΔTm at 10 µM reported for Cc1ccc(C(=O)Nc2ccc(CN3CCN(C)CC3)c(C(F)(F)F)c2)cc1C#Cc1cnc2[nH]ncc2c1 [GZD824] = -4.57

What the record says about CO[C@H]1C[C@@H]2CC[C@@H](C)[C@@](O)(O2)C(=O)C(=O)N2CCCC[C@H]2C(=O)O[C@H]([C@H](C)C[C@@H]2CC[C@@H](OP(C)(C)=O)[C@H](OC)C2)CC(=O)[C@H](C)/C=C(\C)[C@@H](O)[C@@H](OC)C(=O)[C@H](C)C[C@H](C)/C=C/C=C/C=C/1C [Ridaforolimus (Deforolimus)] : ΔTm at 10 µM is -1.84

Reported ΔTm at 10 µM ( COc1ccccc1-c1cc(Nc2cccc(CS(N)(=O)=O)c2)ncn1 [LDC000067] ) = 0.0733

Query C=CC(=O)Nc1cccc(Nc2nc(Nc3ccc(Oc4ccnc(C(=O)NC)c4)cc3)ncc2F)c1 [CNX-774] yields ΔTm at 10 µM of -0.472

ΔTm at 10 µM reported for this compound C=CC(=O)Nc1cccc(Nc2nc(Nc3ccc(OCCOC)cc3)ncc2F)c1 [AVL-292] : 0.368

get_value(item= COc1cc2ncc(-c3ccccc3)nc2cc1OC [Tyrphostin AG 1296] , readout=ΔTm at 10 µM) returns -0.341

Item: COc1ccc(-c2nc(N3CCOCC3)c3sc(CN(C)c4ncc(C(=O)NO)cn4)cc3n2)cn1 [CUDC-907] | ΔTm at 10 µM: -1.08

# compound NC(=O)c1ccc(N(C(N)=O)c2c(F)cccc2F)nc1-c1ccc(F)cc1F [VX-702] ; its ΔTm at 10 µM = -0.792

Given item O=c1cc(-c2cccc3c2Sc2ccccc2S3)oc(N2CCOCC2)c1 [KU-55933 (ATM Kinase Inhibitor)] , the value recorded as its ΔTm at 10 µM is -1.32

// ΔTm at 10 µM value for OCCn1cc(-c2ccc3c(c2)CC/C3=N\O)c(-c2ccncc2)n1 [GDC-0879] : -1.04

1. COc1ccc(COc2cc3oc(=O)c4cc(C(C)O)ccc4c3cc2OC)cc1 (stereo not drawn) [Palomid 529 (P529)]
2. CN([C@@H](Cc1ccc(OS(=O)(=O)c2cccc3cnccc23)cc1)C(=O)N1CCN(c2ccccc2)CC1)S(=O)(=O)c1cccc2cnccc12 [KN-62]
Would you kindly point out which of 1 and 2 has the smaller ΔTm at 10 µM figure? Please identify the chosen entry by its label. 2

###

TARGET_OR_TEST_SYSTEM: ZmDRIK1 (DROUGHT RESPONSIVE INACTIVE KINASE 1), kinase domain (Zea mays, UniProt C0P4K9)
Construct: gene ZEAMMB73_Zm00001d028770; ZmDRIK1-KD R187-S514 (kinase domain)
METHOD_SUMMARY: biochemical
MEASUREMENT_CONDITIONS: read-out: dTm B, sheet ZmDRIK1-R187-S514;; DSF, Boltzmann fit, 0.1% DMSO
OBSERVED_PROPERTY: ΔTm at 10 µM (°C)

Worked examples, 3 compounds total:
Entry CCNc1nc(Nc2cc(F)c(C(=O)N3CCOCC3)cc2OC)ncc1C(F)(F)F [GNE-7915] under ZmDRIK1 (DROUGHT RESPONSIVE INACTIVE KINASE 1), kinase domain (Zea mays, UniProt C0P4K9) had ΔTm at 10 µM of -0.927

Case CCN(CC)CCCCNc1ncc2cc(-c3cc(OC)cc(OC)c3)c(NC(=O)NC(C)(C)C)nc2n1 [PD173074] , ZmDRIK1 (DROUGHT RESPONSIVE INACTIVE KINASE 1), kinase domain (Zea mays, UniProt C0P4K9), ΔTm at 10 µM recorded as -0.711

# CCc1cccc(CC)c1NC(=O)N1Cc2[nH]nc(NC(=O)c3ccc(N4CCN(C)CC4)cc3)c2C1 [PHA-680632] with ZmDRIK1 (DROUGHT RESPONSIVE INACTIVE KINASE 1), kinase domain (Zea mays, UniProt C0P4K9): ΔTm at 10 µM is -0.776

1. C=CC(=O)Nc1cccc(Oc2nc(Nc3ccc(N4CCN(C)CC4)cc3OC)ncc2Cl)c1 [WZ4002]
2. Cc1cc(NC(=O)c2cccc(NC(=O)/C=C/CN(C)C)c2)ccc1Nc1nccc(-c2cccnc2)n1 [JNK-IN-8]
Field: lower ΔTm at 10 µM | Options: 1 / 2 Bench note: the answer is the label of the chosen record. 1
(1: -1.27 °C, 2: -0.726 °C)

a. CNC(=O)c1cc(Oc2ccc(NC(=O)Nc3cc(C(C)(C)C)nn3-c3ccc4ncccc4c3)c(F)c2)ccn1 [DCC-2036 (Rebastinib)]
b. N#Cc1c(Oc2ccc(F)c(NC(=O)Cc3cccc(C(F)(F)F)c3)c2)ccc2nc(NC(=O)C3CC3)sc12 [TAK-632]
Param pair: a , b . Output: the one whose ΔTm at 10 µM is numerically greater. State your choice using its label. b
(b: 1.64 °C, a: -1.41 °C)

a. CO[C@@H](C(=O)N1Cc2[nH]nc(NC(=O)c3ccc(N4CCN(C)CC4)cc3)c2C1)c1ccccc1 [Danusertib (PHA-739358)]
b. C=CC(=O)Nc1ccc2ncnc(Nc3cccc(Br)c3)c2c1 [PD168393]
c. O=C(Nc1ccc(OC(F)(F)F)cc1)c1sccc1NCc1ccnc2ccccc12 [OSI-930]
Arrange these compounds by their ΔTm at 10 µM, starting with the largest number. Form field (ranking): labels in requested order. c, b, a

Hello, the source for this data is paper PMC7158045, in case you need it.
